Test system: CDKL1
Stated conditions: concentration: 1 μM, replicates: in singlicate; n = 1;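 note: KINOMEscan kinase panel screen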
Recorded measurements of %Inh, one per entry
Output spec: scalar in %, unitless text.

Given the compound `CSc1nn2c(=O)cc(N3CCOCC3)nc2n1Cc1cccc(C(F)(F)F)c1C` and test system CDKL1, the measured %Inh is 0

Given the compound `CCn1c(-c2cccnc2O)nc2cnccc21` and test system CDKL1, the measured %Inh is 13

Given the compound `Cl.O=C(Nc1cccc(-c2nn3ncccc3c2-c2ccnc(Nc3cccnc3)n2)c1)c1c(F)cccc1F` and test system CDKL1, the measured %Inh is 1

Given the compound `Cn1cncc1-c1ccc2ncnc(Nc3ccc(OCc4ccccc4)cc3)c2c1` and test system CDKL1, the measured %Inh is 0

Given the compound `Nc1ncnc2[nH]c(-c3ccccc3)nc12` and test system CDKL1, the measured %Inh is 6

###

Tested on: DAPK2
Stated conditions: concentration: 1 μM, replicates: in singlicate; n = 1
Readout: %Inh (%)
Output spec: scalar in %, unitless text.

• O=C(Nc1n[nH]c2nc(-c3nccs3)c(Br)cc12)C1CCCC1 = 0
• COc1cc2nccc(Nc3ccc(NC(=O)c4ccc(C)cc4)c(O)c3)c2cc1OC.Cl = 8
• CC1=C(C(=O)Nc2cc3cn[nH]c3cc2F)C(c2ccc(C(F)(F)F)cc2)CC(=O)N1 (stereo not shown) = 0
• Cc1cc(-c2ccc3c(c2)CC[C@@H](N[C@@H](C)c2ccccc2)C3)cnc1N.Cl = 0

Given the compound `Cc1ccc(NC(=O)Nc2cc(C(C)(C)C)nn2-c2ccccc2)cc1` and test system DAPK2, the measured %Inh is 0

Given the compound `CN1C(=O)C(Nc2ccc(Cl)c(C(=O)O)c2)=C(c2ccc(Cl)cc2)C1=O` and test system DAPK2, the measured %Inh is 9

Given the compound `Fc1cccc(COc2nnc(-c3ccc4c(c3)CCO4)o2)c1` and test system DAPK2, the measured %Inh is 0

Given the compound `CCn1c(-c2cccnc2O)nc2cnccc21` and test system DAPK2, the measured %Inh is 0

Given the compound `Cl.Oc1ccc(-c2nc(-c3ccccc3)[nH]c2-c2ccncc2)cc1` and test system DAPK2, the measured %Inh is 0

Given the compound `Cc1ccccc1-n1cnc2c(N)ncnc21` and test system DAPK2, the measured %Inh is 10

Given the compound `Fc1cc(Cl)ccc1Nc1ccnc2cc(-c3ccc(CN4CCCCC4)o3)ccc12` and test system DAPK2, the measured %Inh is 0

###

System: BIKE
Construct: gene BMP2K
Stated conditions: concentration: 1 μM, replicates: in singlicate; n = 1
Recorded measurements of %Inh, one per entry
Output spec: scalar in %, unitless text.

- Cc1ccc(NC(=O)Nc2cc(C(C)(C)C)nn2-c2ccccc2)cc1: 22
- CCn1c(-c2cccnc2O)nc2cnccc21: 0
- Cl.Oc1ccc(-c2nc(-c3ccccc3)[nH]c2-c2ccncc2)cc1: 0

Now consider the entry below.
Consider COc1cc2ncn(-c3cc(OCC4CCCO4)c(C(N)=O)s3)c2cc1OC (stereo not drawn) . Its measured %Inh is 72

###

System: SIK2
Stated conditions: concentration: 1 μM, replicates: in singlicate; n = 1
In plain terms, low %Inh, meaning strictly below 3%, gives Satisfied, and everything else gives Not satisfied.

Previously resolved entries follow.
- Cn1ccc2ncnc(Oc3ccc(NC(=O)Nc4ccccc4)cc3)c21: Not satisfied
- COc1cc(Nc2nccc(N3CCC(NC(=O)Nc4cc(C)ccc4C)C3)n2)cc(OC)c1OC (stereo not drawn) [GSK1379762]: Not satisfied
- Nc1ncnc2[nH]c(-c3ccccc3)nc12 [AH5015]: Not satisfied
- Cc1c(Cn2ccn3c(=O)cc(N4CCOCC4)nc23)cccc1C(F)(F)F [GSK2289044]: Satisfied
- Cc1cccc(-c2nc(Nc3ccc4[nH]ncc4c3)c3ccccc3n2)n1 [GW857175]: Satisfied

Strictly below 3% in %Inh? Cc1ccc(NC(=O)Nc2cccc(Cl)c2)cc1-c1ccc(C(=O)Nc2ccncc2)cc1 [GSK1398468] Satisfied

Strictly below 3% in %Inh? `NC(=O)c1nnc2ccccc2c1N` Not satisfied

Strictly below 3% in %Inh? Cc1cccc(-c2cc(Nc3ccncc3)c3ccccc3n2)n1 [GSK223675] Satisfied

###

Recorded measurements of %Inh, one per entry
System: YANK1
Construct: gene STK32A
Stated conditions: concentration: 1 μM, replicates: in singlicate; n = 1
Output spec: scalar in %, unitless text.

Answered cases to consult:
* COc1cc2nccc(Nc3ccc(NC(=O)c4ccc(C)cc4)c(O)c3)c2cc1OC.Cl | 11
* COc1ccc(Nc2nccc(-c3cccc(NC(=O)c4cc5cc(F)ccc5[nH]4)c3)n2)cc1 | 3
* CCn1c(-c2ccccn2)nc2cnccc21 | 0

Consider `O=C(Nc1n[nH]c2nc(-c3nccs3)c(Br)cc12)C1CC1` . Its measured %Inh is 6

Consider `Nc1nc(-c2nccs2)c(-c2ccnc3ccccc23)s1` . Its measured %Inh is 9

Consider `Cc1cc(N2Cc3ccccc3C2)nc(Nc2ccc(S(=O)(=O)N3CCOCC3)cc2)n1.Cl` . Its measured %Inh is 7

Consider `O=c1cc(N2CCOCC2)nc2n(Cc3cccc(Cl)c3Cl)ccn12` . Its measured %Inh is 16

Consider `Cl.NC(=O)c1cccc(Nc2nccc(Nc3ccc(Oc4cccc(Cl)c4)c(Cl)c3)n2)c1` . Its measured %Inh is 3

Consider `Cc1ccc(NC(=O)Nc2cc(C(C)(C)C)nn2-c2ccccc2)cc1` . Its measured %Inh is 13

###

Test system: TTK
Stated conditions: concentration: 1 μM, replicates: in singlicate; n = 1
Recorded measurements of %Inh, one per entry
Output spec: scalar in %, unitless text.

Answered cases to consult:
* NC(=O)c1nnc2ccccc2c1N | 12
* Cc1ccc(C(=O)Nc2ccc(Nc3ccnc4cc(-c5ccccn5)ccc34)cc2O)cc1.Cl | 0
* CSc1nn2c(=O)cc(N3CCOCC3)nc2n1Cc1cccc(C(F)(F)F)c1C | 0
* O=C(Nc1ccc2c(c1)OCO2)NC1CCN(c2ccnc(Nc3ccc(F)cc3)n2)C1 (stereo not shown) | 26
* O=S(=O)(c1ccc(-c2ccnc3[nH]ccc23)cc1)N1CCCC1 | 20

Consider `COc1cc2nccc(Nc3ccc(NC(=O)c4ccc(C)cc4)c(O)c3)c2cc1OC.Cl` . Its measured %Inh is 0

Consider `COc1ccc(Nc2nccc(NCCNC(=O)Nc3ccccc3F)n2)cc1` . Its measured %Inh is 0

Consider `CC(=O)Nc1nc2cnc(Nc3cc(NC(=O)c4cccc(CCC#N)c4)ccc3C)nc2s1` . Its measured %Inh is 16

Consider `Cc1ccccc1-n1cnc2c(N)ncnc21` . Its measured %Inh is 0

Consider `Cc1cccc(-c2cc(Nc3ccncc3)c3ccccc3n2)n1` . Its measured %Inh is 0

###

Test system: TYK2(JH2domain-pseudokinase)
Stated conditions: concentration: 1 μM, replicates: in singlicate; n = 1
In plain terms, low %Inh, meaning strictly below 30%, gives fulfilled, and everything else gives not fulfilled.

- Cc1ccc(NC(=O)Nc2cccc(Cl)c2)cc1-c1ccc(C(=O)Nc2ccncc2)cc1: fulfilled
- Cc1cccc(-c2nc(Nc3cccc(C(N)=O)c3)c3ccccc3n2)n1: fulfilled
- Cc1cc(-c2ccc3c(c2)CC[C@@H](N[C@@H](C)c2ccccc2)C3)cnc1N.Cl: fulfilled

Strictly below 30% in %Inh? `Cl.Oc1ccc(-c2nc(-c3ccccc3)[nH]c2-c2ccncc2)cc1` not fulfilled

Strictly below 30% in %Inh? `Cn1ccc2ncnc(Oc3ccc(NC(=O)Nc4ccccc4)cc3)c21` fulfilled

###

Recorded measurements of %Inh, one per entry
System: RIPK1
Stated conditions: concentration: 1 μM, replicates: in singlicate; n = 1
Output spec: scalar in %, unitless text.

Answered cases to consult:
• Cc1c(Cn2ccn3c(=O)cc(N4CCOCC4)nc23)cccc1C(F)(F)F = 9
• CS(=O)(=O)c1ccc(-c2nc3n(c2-c2ccncc2)CCC3)cc1 = 0
• COc1ccc(Nc2nccc(NCCNC(=O)Nc3ccccc3F)n2)cc1 = 33
• CN1C(=O)C(Nc2ccc(Cl)c(C(=O)O)c2)=C(c2ccc(Cl)cc2)C1=O = 0

Given the compound `Cl.Oc1ccc(-c2nc(-c3ccccc3)[nH]c2-c2ccncc2)cc1` and test system RIPK1, the measured %Inh is 0

Given the compound `C[C@@H]1CCCCN1c1cc(-c2ccc3c(N)n[nH]c3c2)nc(N)n1` and test system RIPK1, the measured %Inh is 0

Given the compound `Cc1cccc(-c2nc(Nc3ccc4[nH]ncc4c3)c3ccccc3n2)n1` and test system RIPK1, the measured %Inh is 0

Given the compound `Cc1cccc(-c2nc(Nc3ccncc3)c3ccccc3n2)n1` and test system RIPK1, the measured %Inh is 4

Given the compound `COC(=O)c1c(-c2ccccc2)c2cc(C(=O)O)ccc2c(=O)n1Cc1ccccc1` and test system RIPK1, the measured %Inh is 0
